Assay: MTT cytotoxicity assay
Assay type: cell-based, human
Conditions: human, HEK293T cells, OD450, cytotoxicity (Fig 2a), replicates
Description: To determine the cytotoxicity of the peptides, we used the MTT (3-(4,5)-dimethylthiahiazo (-z-y1)-3,5-di-phenytetrazoliumromide) dye reduction assay against HEK293T cells. In brief, the 100 μL of cells in 96-well plate were incubated for 24 h at 37 °C, 5% CO2, and then peptide solutions (concentrations ranging from 100 to 0.39 μM) were added and further incubated for 72 h. MTT solution (5 mg/mL) was added and further incubated for 4 h. […]
Non-standard residues stand in square brackets, D forms with d. Residues, ends and D or L forms follow the SMILES beside them.

- compound: "CC[C@@H](C)[C@@H](NC(=O)[C@@H](Cc1ccccc1)NC(=O)[C@@H](Cc1ccccc1)NC(=O)[C@@H](Cc1ccccc1)NC(=O)[C@H](N)Cc1ccccc1)C(=O)N[C@H](CCCNC(=N)N)C(=O)N[C@H](CCCNC(=N)N)C(=O)N[C@H](CC(C)C)C(=O)N[C@H](Cc1ccccc1)C(=O)N[C@H](CCCNC(=N)N)C(N)=O [RI-HT2] (H-[dF][dF][dF][dF][dI][dR][dR][dL][dF][dR]-NH2; N-terminus assumed)"
  viability at 72 h, 50 µM: "77.8%"
- compound: "CC[C@H](C)[C@H](NC(=O)[C@H](CCCNC(=N)N)NC(=O)[C@H](CCCNC(=N)N)NC(=O)[C@H](CC(C)C)NC(=O)[C@H](Cc1ccccc1)NC(=O)[C@H](Cc1ccccc1)NC(=O)[C@H](Cc1ccccc1)NC(=O)[C@@H](N)Cc1ccccc1)C(=O)N[C@@H](Cc1ccccc1)C(=O)N[C@@H](CCCNC(=N)N)C(=O)N[C@@H](CCCNC(=N)N)C(N)=O [F-SHf(R^5)-RR] (H-FFFFLRRIFRR-NH2; N-terminus assumed)"
  viability at 72 h, 50 µM: "2.62%"
- compound: "CC[C@H](C)[C@H](NC(=O)[C@H](CCCNC(=N)N)NC(=O)[C@H](CCCNC(=N)N)NC(=O)[C@H](CC(C)C)NC(=O)[C@H](Cc1ccccc1)NC(=O)[C@H](Cc1ccccc1)NC(=O)[C@H](Cc1ccccc1)NC(=O)[C@@H](N)Cc1ccccc1)C(=O)N[C@@H](Cc1ccccc1)C(=O)N[C@@H](CCCNC(=N)N)C(N)=O [F-SHf(R^5)-R] (H-FFFFLRRIFR-NH2; N-terminus assumed)"
  viability at 72 h, 50 µM: "2.63%"

---

Tested on: MRSA USA 300
Type: cell-based, Staphylococcus aureus
Text: Bacteria were cultivated in Luria-Bertani (LB) broth.
Residues, ends and D or L forms follow the SMILES beside them.

- compound: "CC[C@H](C)[C@H](NC(=O)[C@H](CCCNC(=N)N)NC(=O)[C@H](CCCNC(=N)N)NC(=O)[C@H](CC(C)C)NC(=O)[C@H](Cc1ccccc1)NC(=O)[C@@H](N)CCCNC(=N)N)C(=O)N[C@@H](Cc1ccccc1)C(=O)N[C@@H](CCCNC(=N)N)C(=O)N[C@@H](Cc1ccccc1)C(=O)N[C@@H](Cc1ccccc1)C(=O)N[C@@H](Cc1ccccc1)C(N)=O [HT4] (H-RFLRRIFRFFF-NH2)"
  MIC Gram+ MRSA USA 300: "3.13 µM"
- compound: "CC[C@H](C)[C@H](NC(=O)[C@H](CCCNC(=N)N)NC(=O)[C@H](CCCNC(=N)N)NC(=O)[C@H](CC(C)C)NC(=O)[C@H](Cc1ccccc1)NC(=O)[C@H](Cc1ccccc1)NC(=O)[C@H](Cc1ccccc1)NC(=O)[C@H](Cc1ccccc1)NC(=O)[C@@H](N)Cc1ccccc1)C(=O)N[C@@H](Cc1ccccc1)C(N)=O [FF-SHf(R^5)] (H-FFFFFLRRIF-NH2; N-terminus assumed)"
  MIC Gram+ MRSA USA 300: "3.13 µM"

---

Assay: MTT cytotoxicity assay
Type: cell-based, human
Details: human
Non-standard residues stand in square brackets, D forms with d. Residues, ends and D or L forms follow the SMILES beside them.
# IC50 at 72 h per record follows
quantityMeasured: IC50 at 72 h

- compound: "CC[C@H](C)[C@H](NC(=O)[C@H](CCCNC(=N)N)NC(=O)[C@H](CCCNC(=N)N)NC(=O)[C@H](CC(C)C)NC(=O)[C@H](Cc1ccccc1)NC(=O)[C@@H](N)CCCNC(=N)N)C(=O)N[C@@H](Cc1ccccc1)C(=O)N[C@@H](CCCCN)C(=O)N[C@@H](Cc1ccccc1)C(=O)N[C@@H](Cc1ccccc1)C(=O)N[C@@H](Cc1ccccc1)C(N)=O [HT5] (H-RFLRRIFKFFF-NH2)"
  quantityMeasured: "IC50 at 72 h"
  valueObserved: "2300 nM"
- compound: "CC[C@H](C)[C@H](NC(=O)[C@H](CCCNC(=N)N)NC(=O)[C@H](CCCNC(=N)N)NC(=O)[C@H](CC(C)C)NC(=O)[C@H](Cc1ccccc1)NC(=O)[C@H](Cc1ccccc1)NC(=O)[C@H](Cc1ccccc1)NC(=O)[C@@H](N)Cc1ccccc1)C(=O)N[C@@H](Cc1ccccc1)C(=O)N[C@@H](CCCNC(=N)N)C(N)=O [F-SHf(R^5)-R] (H-FFFFLRRIFR-NH2; N-terminus assumed)"
  quantityMeasured: "IC50 at 72 h"
  valueObserved: "200 nM"
- compound: "CC[C@@H](C)[C@@H](NC(=O)[C@@H](Cc1ccccc1)NC(=O)[C@@H](Cc1ccccc1)NC(=O)[C@@H](Cc1ccccc1)NC(=O)[C@H](N)Cc1ccccc1)C(=O)N[C@H](CCCNC(=N)N)C(=O)N[C@H](CCCNC(=N)N)C(=O)N[C@H](CC(C)C)C(=O)N[C@H](Cc1ccccc1)C(=O)N[C@H](CCCNC(=N)N)C(N)=O [RI-HT2] (H-[dF][dF][dF][dF][dI][dR][dR][dL][dF][dR]-NH2; N-terminus assumed)"
  quantityMeasured: "IC50 at 72 h"
  valueObserved: "> 100000 nM"

---

# MIC Gram+ MRSA ATCC 43300 per record follows
System: MRSA ATCC 43300
Type: cell-based, Staphylococcus aureus
Conditions: ATCC 43300
Non-standard residues stand in square brackets, D forms with d. Residues, ends and D or L forms follow the SMILES beside them.

- compound: "CC[C@@H](C)[C@@H](NC(=O)[C@@H](CCCNC(=N)N)NC(=O)[C@@H](CCCNC(=N)N)NC(=O)[C@@H](CC(C)C)NC(=O)[C@@H](Cc1ccccc1)NC(=O)[C@H](N)CCCNC(=N)N)C(=O)N[C@H](Cc1ccccc1)C(=O)N[C@H](Cc1ccccc1)C(=O)N[C@H](Cc1ccccc1)C(=O)N[C@H](Cc1ccccc1)C(N)=O [D-HT2] (H-[dR][dF][dL][dR][dR][dI][dF][dF][dF][dF]-NH2; N-terminus assumed)"
  measurementTarget: "MRSA ATCC 43300"
  censorSymbol: "="
  MIC Gram+ MRSA ATCC 43300 [µM]: 6.25
- compound: "CC[C@H](C)[C@H](NC(=O)[C@H](CCCNC(=N)N)NC(=O)[C@H](CCCNC(=N)N)NC(=O)[C@H](CC(C)C)NC(=O)[C@H](Cc1ccccc1)NC(=O)[C@@H](N)CCCNC(=N)N)C(=O)N[C@@H](Cc1ccccc1)C(=O)N[C@@H](CCCCN)C(=O)N[C@@H](Cc1ccccc1)C(=O)N[C@@H](Cc1ccccc1)C(=O)N[C@@H](Cc1ccccc1)C(N)=O [HT5] (H-RFLRRIFKFFF-NH2)"
  measurementTarget: "MRSA ATCC 43300"
  censorSymbol: "="
  MIC Gram+ MRSA ATCC 43300 [µM]: 3.13
- compound: "CC[C@H](C)[C@H](NC(=O)[C@H](CCCNC(=N)N)NC(=O)[C@H](CCCNC(=N)N)NC(=O)[C@H](CC(C)C)NC(=O)[C@H](Cc1ccccc1)NC(=O)[C@H](Cc1ccccc1)NC(=O)[C@H](Cc1ccccc1)NC(=O)[C@@H](N)Cc1ccccc1)C(=O)N[C@@H](Cc1ccccc1)C(N)=O [F-SHf(R^5)] (H-FFFFLRRIF-NH2; N-terminus assumed)"
  measurementTarget: "MRSA ATCC 43300"
  censorSymbol: "="
  MIC Gram+ MRSA ATCC 43300 [µM]: 1.57
- compound: "CC[C@H](C)[C@H](NC(=O)[C@H](CCCNC(=N)N)NC(=O)[C@H](CO)NC(=O)[C@H](CC(C)C)NC(=O)[C@H](Cc1ccccc1)NC(=O)[C@@H](N)Cc1ccccc1)C(=O)N[C@@H](Cc1ccccc1)C(N)=O [SHfΔ1F] (H-FFLSRIF-NH2)"
  measurementTarget: "MRSA ATCC 43300"
  censorSymbol: ">"
  MIC Gram+ MRSA ATCC 43300 [µM]: 100
- compound: "CC[C@H](C)[C@H](NC(=O)[C@H](CCCNC(=N)N)NC(=O)[C@H](CCCNC(=N)N)NC(=O)[C@H](CC(C)C)NC(=O)[C@@H](N)Cc1ccccc1)C(=O)N[C@@H](Cc1ccccc1)C(=O)N[C@@H](Cc1ccccc1)C(=O)N[C@@H](Cc1ccccc1)C(=O)N[C@@H](Cc1ccccc1)C(N)=O [HT1] (H-FLRRIFFFF-NH2)"
  measurementTarget: "MRSA ATCC 43300"
  censorSymbol: "="
  MIC Gram+ MRSA ATCC 43300 [µM]: 3.13
- compound: "CC[C@H](C)[C@H](NC(=O)[C@H](CCCNC(=N)N)NC(=O)[C@H](CCCNC(=N)N)NC(=O)[C@H](CC(C)C)NC(=O)[C@H](Cc1ccccc1)NC(=O)[C@H](Cc1ccccc1)NC(=O)[C@H](Cc1ccccc1)NC(=O)[C@@H](N)Cc1ccccc1)C(=O)N[C@@H](Cc1ccccc1)C(=O)N[C@@H](CCCNC(=N)N)C(=O)N[C@@H](CCCNC(=N)N)C(N)=O [F-SHf(R^5)-RR] (H-FFFFLRRIFRR-NH2; N-terminus assumed)"
  measurementTarget: "MRSA ATCC 43300"
  censorSymbol: "="
  MIC Gram+ MRSA ATCC 43300 [µM]: 1.57
